test: Surrogate Activity-Based Plasma Stability Assay; type: in vitro ADME; conditions: rat
Where a SMILES comes first, the peptide text is derived from it. Bridges are numbered along the chain shown (N, C = ends). [ ]: non-standard residue; d: D form. pGlu = O=C1CC[C@@H](C(=O)O)N1; dNle = CCCC[C@@H](N)C(=O)O; Nle = CCCC[C@H](N)C(=O)O
PROPERTY_MEASURED: half-life (h)
Kindly provide the numeric value in h only, without the unit symbol.

>  <MOLECULE>
CCCC[C@@H](NC(=O)[C@@H]1CCCN1C(=O)[C@@H](C)NC(=O)[C@H](CCCCN)NC(=O)[C@@H]1CSSC[C@H](NC(=O)[C@H](CCCNC(=N)N)NC(=O)[C@@H]2CCC(=O)N2)C(=O)N[C@@H](CCCNC(=N)N)C(=O)N[C@@H](CC(C)C)C(=O)N[C@@H](CO)C(=O)N1)C(=O)N[C@H](C)C(=O)N[C@H](Cc1ccccc1)C(=O)O [Example 23, pE-R-C*-R-L-S-C*-K-a-P-(D-Nle)-a-f-OH] ([pGlu]RCRLSCK[dA]P[dNle][dA][dF]-OH; disulfide 3-7)

>  <half-life / h>
52.6

$$$$

Write down half-life measured for item CCCC[C@H](NC(=O)[C@@H]1CCCN1C(=O)CNC(=O)[C@H](CCCCN)NC(=O)[C@@H]1CSSC[C@H](NC(=O)[C@H](CCCNC(=N)N)NC(=O)[C@@H]2CCC(=O)N2)C(=O)N[C@@H](CCCNC(=N)N)C(=O)N[C@@H](CC(C)C)C(=O)N[C@@H](CO)C(=O)N1)C(=O)N1CCC[C@H]1C(=O)N[C@@H](Cc1ccccc1)C(=O)O [Example 20, pE-R-C*-R-L-S-C*-K-G-P-Nle-P-F-OH] ([pGlu]RCRLSCKGP[Nle]PF-OH; disulfide 3-7)
0.198
